# STUDY SYSTEM: UniProtKB P33535
# Sequence (P33535 whole entry): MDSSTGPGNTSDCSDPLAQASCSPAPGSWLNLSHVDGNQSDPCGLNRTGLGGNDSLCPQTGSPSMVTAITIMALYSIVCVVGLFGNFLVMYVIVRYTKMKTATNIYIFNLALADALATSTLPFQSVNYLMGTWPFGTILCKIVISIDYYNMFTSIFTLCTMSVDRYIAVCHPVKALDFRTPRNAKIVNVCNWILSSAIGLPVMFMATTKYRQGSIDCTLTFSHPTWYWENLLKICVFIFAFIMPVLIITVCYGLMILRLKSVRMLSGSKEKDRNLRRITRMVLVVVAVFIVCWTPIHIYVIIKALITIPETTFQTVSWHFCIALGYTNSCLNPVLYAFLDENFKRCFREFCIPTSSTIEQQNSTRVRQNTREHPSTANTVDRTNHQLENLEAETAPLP
OUTCOME MEASURE: pKi
Interpret pKi as the negative base-10 log of the concentration measured in mol/L.

Worked examples, 3 molecules total:
{"STRUCTURE STRING": "N[C@@H](Cc1ccc(CO)cc1)C(=O)N1Cc2ccccc2C[C@H]1c1nc(-c2ccccc2)c[nH]1", "pKi": 6.04}
{"STRUCTURE STRING": "Cc1cc(C(N)=O)cc(C)c1C[C@H](N)C(=O)N1CCCC[C@H]1c1nc(-c2ccccc2)c[nH]1", "pKi": 9.89}
{"STRUCTURE STRING": "CS(=O)(=O)Nc1ccc(C[C@H](N)C(=O)N2Cc3ccccc3C[C@H]2c2nc(-c3ccccc3)c[nH]2)cc1", "pKi": 6.45}

Turning now to a further molecule:
Test item `Cc1[nH]c([C@@H]2Cc3ccccc3CN2C(=O)[C@@H](N)Cc2ccccc2)nc1-c1ccccc1` ; UniProtKB P33535; reported pKi was 5.74
